- experiment.summary: Elimination half life in male ICR mouse colon at 10 mg/kg, iv measured up to 336 hrs by LC-MS/MS analysis
- Type: ADME, organism-based
- assay.setup: read-out: beta t1/2 (converted)
observed.property: half-life (h)

>>> obs_value("C#Cc1c(F)ccc2cc(O)cc(-c3ncc4c(N5CC6CCC(C5)N6)nc(OCC5(CN6CCC7(CC6)CC(N6CCC(c8cc9c(cc8F)c(N8CCC(=O)NC8=O)nn9C)CC6)C7)CC5)nc4c3F)c12")
94.6

====

- experiment.summary: Metabolic stability in human liver microsomes assessed as half life at 1 uM preincubated for 3 mins with NADPH and measured up to 60 mins by LC-MS/MS analysis
- Type: ADME, Microsome
- assay.setup: time < 63 min
observed.property: half-life at 1 µM (h)

>>> obs_value("C#Cc1c(F)ccc2cc(O)cc(-c3ncc4c(N5CC6CCC(C5)N6)nc(OCC5(CN6CCC7(CC6)CC(N6CCC(c8cc9c(cc8F)c(N8CCC(=O)NC8=O)nn9C)CC6)C7)CC5)nc4c3F)c12")
2.57
